Experimental system: plasmin (Homo sapiens)
Sequence (P00747 581-810 limits assumed): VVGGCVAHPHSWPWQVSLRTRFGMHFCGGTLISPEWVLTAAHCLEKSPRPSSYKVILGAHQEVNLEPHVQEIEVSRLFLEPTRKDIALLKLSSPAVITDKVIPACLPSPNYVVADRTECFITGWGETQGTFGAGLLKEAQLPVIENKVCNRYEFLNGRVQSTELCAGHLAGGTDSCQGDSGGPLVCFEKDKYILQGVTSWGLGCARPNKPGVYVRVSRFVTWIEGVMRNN
Sequence (P00747 97-580 partner limits assumed): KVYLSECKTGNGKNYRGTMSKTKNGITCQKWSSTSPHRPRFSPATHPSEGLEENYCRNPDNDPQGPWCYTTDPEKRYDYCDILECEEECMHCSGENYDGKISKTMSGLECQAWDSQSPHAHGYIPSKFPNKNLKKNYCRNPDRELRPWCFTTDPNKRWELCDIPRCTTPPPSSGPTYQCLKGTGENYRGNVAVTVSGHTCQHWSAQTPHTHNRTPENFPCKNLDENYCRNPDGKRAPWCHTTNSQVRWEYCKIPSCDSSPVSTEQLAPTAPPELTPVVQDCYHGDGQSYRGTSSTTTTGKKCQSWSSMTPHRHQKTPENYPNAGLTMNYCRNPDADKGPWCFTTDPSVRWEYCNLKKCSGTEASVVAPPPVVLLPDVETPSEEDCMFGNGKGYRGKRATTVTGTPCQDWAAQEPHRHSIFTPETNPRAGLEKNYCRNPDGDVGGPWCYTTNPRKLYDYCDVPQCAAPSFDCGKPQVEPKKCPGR
Experiment description: Inhibition of plasmin hydrolysis of succinyl-Ala-Phe-Lys-(F3Ac)AMC, tight-binding fit (Ki used as KD)
Assay type: biochemical
Assay context: affinity for plasmin
pKd: −log10 of the molar value. Bridges are numbered along the chain shown (N, C = ends). Where no end group is shown, it is not given here.
Readout name: pKd

MHSFCAFKAETGPCRARFDRWFFNIFTRQCEEFIYGGCEGNQNRFESLEECKKMCTRD (disulfide 5-55, 14-38, 30-51) [SPI11] | > 10.00

Reference for the values: patent US7919462B2
